TARGET OF ASSAY: COX-1
EXPERIMENT NOTES: Evaluation of COX-1 activity in vitro (PGE2 ELISA, recombinant enzyme)
COND: arachidonic acid 10 μM, pH 8.0, pre-incubation 10-20 minutes
pIC50: −log10 of the molar value.
In this section we review reported pIC50 values for a set of compounds.

Solved entries:
Entry Cc1noc(-c2ccc(F)cc2)c1-c1ccc(S(N)(=O)=O)cc1 , pIC50 reported as < 4.00

Entry COc1ccc(-c2noc(C)c2-c2ccc(S(C)(=O)=O)cc2)cc1Cl , pIC50 reported as < 4.00

Entry NS(=O)(=O)c1ccc(-c2c(-c3ccccc3)noc2CC(=O)O)cc1 , pIC50 reported as < 4.00

Entry CCc1onc(-c2ccccc2)c1-c1ccc(S(N)(=O)=O)cc1 , pIC50 reported as 4.76

// moving on: another record for pIC50
Entry COc1ccc(-c2noc(C)c2-c2ccc(S(N)(=O)=O)cc2)cc1F , pIC50 reported as < 4.00
